assay: Plasma clearance in Sprague-Dawley rat at 5 mg/kg, iv; format: ADME, organism-based
reported.endpoint: clearance (mL/min/kg)
Answers are plain numbers, in mL/min/kg.

Prompt: For the molecule shown here, `O=C(NC[C@@H]1CCOC1)c1ccc(NC(=O)N2Cc3ccccc3C2)cc1` , give the reported clearance.
Completion: 4.33

----------
assay: Oral bioavailability in Sprague-Dawley rat at 1 mg/kg; assay type: ADME, organism-based; conditions: in vivo
reported.endpoint: bioavailability

Prompt: For the compound shown here, `CC(C)(O)CC(=O)N1CCC(c2ccc(NC(=O)N3Cc4ccccc4C3)cc2)CC1` , give the reported bioavailability.
Completion: 100%
